The values you see were collected from patent US10570179B2.

# Test description: Plasma stability assay
# Format: in vitro ADME, mouse
# Condition label: mouse, 10 μM
Numbered stars: 1 amine (or outer) side, 2 acyl side, 3 side chain; on linkers, the order of the positions; unused ones are H or OH. Bridge positions count the residues as written; N and C are the ends. Square brackets hold non-standard residues; d marks the D form. Peptide text beside a SMILES is read from it. * marks the point of attachment. Piperazine(2S-CO,4-Me) = CN1CCN[C@H](C(=O)O)C1; Phe(3,5-F2) = N[C@@H](Cc1cc(F)cc(F)c1)C(=O)O; Morpholine(3S-CO) = O=C(O)[C@@H]1COCCN1; Phe(3-Me) = Cc1cccc(C[C@H](N)C(=O)O)c1; NH(4-Cl-2-F-phenyl) = Fc1cc(Cl)ccc1N*; Pro(4R-Me) = C[C@H]1CN[C@H](C(=O)O)C1; Hyp = O=C(O)[C@@H]1C[C@@H](O)CN1; NH(4-Et-phenyl) = CCc1ccc(N*)cc1; aThr = C[C@H](O)[C@H](N)C(=O)O; Pip = O=C(O)[C@@H]1CCCCN1; X3 = c1cc2c(cc1N*)OCCO2; CO = O=C([*:1])[*:2]; X2 = Fc1cc(N*)ccc1Cl
Form field: Mouse (one value per entry).

- C[C@@H]1C[C@H]2C(=O)OC[C@H](NC(=O)[C@H](Cc3cc(F)cc(F)c3)NC(=O)Nc3ccc(Cl)cc3F)C(=O)N3CCC[C@H]3C(=O)N3CCN(C)C[C@H]3C(=O)N[C@@H](C)C(=O)N2C1 [Compound 34] ({NH(4-Cl-2-F-phenyl)-CO}-[Phe(3,5-F2)]SP[Piperazine(2S-CO,4-Me)]A[Pro(4R-Me)]; ester 2-C): 21.18 h

Tell me measured Mouse for CCc1ccc(NC(=O)N[C@@H](Cc2cccc(C)c2)C(=O)N[C@@H]2C(=O)N3C[C@H](O)C[C@H]3C(=O)N3CCOC[C@H]3C(=O)N[C@@H](C)C(=O)N3C[C@H](C)C[C@H]3C(=O)O[C@H]2C)cc1 [Compound 24] ({NH(4-Et-phenyl)-CO}-[Phe(3-Me)][aThr][Hyp][Morpholine(3S-CO)]A[Pro(4R-Me)]; ester 2-C) please.
>50 h

Tell me measured Mouse for Cc1cccc(C[C@H](NC(=O)Nc2ccc(Cl)c(F)c2)C(=O)N[C@@H]2C(=O)N3CCC[C@H]3C(=O)N3CCCC[C@H]3C(=O)N[C@@H](C)C(=O)N3C[C@H](C)C[C@H]3C(=O)O[C@H]2C)c1 [Compound 35] ({X2-CO}-[Phe(3-Me)][aThr]P[Pip]A[Pro(4R-Me)]; ester 2-C) please.
>50 h

Tell me measured Mouse for Cc1cccc(C[C@H](NC(=O)Nc2ccc3c(c2)OCCO3)C(=O)N[C@@H]2C(=O)N3C[C@H](O)C[C@H]3C(=O)N3CCCC[C@H]3C(=O)N[C@@H](C)C(=O)N3C[C@H](C)C[C@H]3C(=O)O[C@H]2C)c1 [Compound 28] ({X3-CO}-[Phe(3-Me)][aThr][Hyp][Pip]A[Pro(4R-Me)]; ester 2-C) please.
>50 h

Tell me measured Mouse for Cc1cccc(C[C@H](NC(=O)Nc2ccc(Cl)cc2F)C(=O)N[C@@H]2C(=O)N3C[C@H](O)C[C@H]3C(=O)N3CCN(C)C[C@H]3C(=O)N[C@@H](C)C(=O)N3C[C@H](C)C[C@H]3C(=O)O[C@H]2C)c1 [Compound 31] ({NH(4-Cl-2-F-phenyl)-CO}-[Phe(3-Me)][aThr][Hyp][Piperazine(2S-CO,4-Me)]A[Pro(4R-Me)]; ester 2-C) please.
>50 h

Tell me measured Mouse for Cc1cccc(C[C@H](NC(=O)Nc2ccc3c(c2)OCCO3)C(=O)N[C@@H]2C(=O)N3CCC[C@H]3C(=O)N3CCCC[C@H]3C(=O)N[C@@H](C)C(=O)N3C[C@H](C)C[C@H]3C(=O)O[C@H]2C)c1 [Compound 21] ({X3-CO}-[Phe(3-Me)][aThr]P[Pip]A[Pro(4R-Me)]; ester 2-C) please.
>50 h

----------
# Test description: Plasma protein binding, rapid equilibrium dialysis
# Type: in vitro ADME, mouse
# Condition label: mouse, 4 h, 10 μM, pH 7.4
Numbered stars: 1 amine (or outer) side, 2 acyl side, 3 side chain; on linkers, the order of the positions; unused ones are H or OH. Bridge positions count the residues as written; N and C are the ends. Square brackets hold non-standard residues; d marks the D form. Peptide text beside a SMILES is read from it. * marks the point of attachment. Piperazine(2S-CO,4-Me) = CN1CCN[C@H](C(=O)O)C1; NH(1,3-benzodioxol-5-yl) = c1cc2c(cc1N*)OCO2; Phe(3,5-F2) = N[C@@H](Cc1cc(F)cc(F)c1)C(=O)O; Phe(3,5-Me2) = Cc1cc(C)cc(C[C@H](N)C(=O)O)c1; Phe(3-Me) = Cc1cccc(C[C@H](N)C(=O)O)c1; NH(4-Cl-2-F-phenyl) = Fc1cc(Cl)ccc1N*; Pro(4R-Me) = C[C@H]1CN[C@H](C(=O)O)C1; X1 = O=C([C@@H]1CSCCN1[*:1])[*:2]; aThr = C[C@H](O)[C@H](N)C(=O)O; Pip = O=C(O)[C@@H]1CCCCN1; CO = O=C([*:1])[*:2]; X2 = Fc1cc(N*)ccc1Cl
Form field: Mouse (one value per entry).
State just the number; it will be interpreted in %.

Example entries begin here.
* Cc1cccc(C[C@H](NC(=O)Nc2ccc(Cl)cc2F)C(=O)N[C@H]2COC(=O)[C@@H]3C[C@@H](C)CN3C(=O)[C@H](C)NC(=O)[C@@H]3CN(C)CCN3C(=O)[C@@H]3CCCN3C2=O)c1 [Compound 13] ({NH(4-Cl-2-F-phenyl)-CO}-[Phe(3-Me)]SP[Piperazine(2S-CO,4-Me)]A[Pro(4R-Me)]; ester 2-C) | 97.5
* C[C@@H]1C[C@H]2C(=O)OC[C@H](NC(=O)[C@H](Cc3cc(F)cc(F)c3)NC(=O)Nc3ccc(Cl)cc3F)C(=O)N3CCC[C@H]3C(=O)N3CCN(C)C[C@H]3C(=O)N[C@@H](C)C(=O)N2C1 [Compound 34] ({NH(4-Cl-2-F-phenyl)-CO}-[Phe(3,5-F2)]SP[Piperazine(2S-CO,4-Me)]A[Pro(4R-Me)]; ester 2-C) | 97.5
* Cc1cccc(C[C@H](NC(=O)Nc2ccc3c(c2)OCO3)C(=O)N[C@H]2COC(=O)[C@@H]3C[C@@H](C)CN3C(=O)[C@H](C)NC(=O)[C@@H]3CN(C)CCN3C(=O)[C@@H]3CCCN3C2=O)c1 [Compound 17] ({NH(1,3-benzodioxol-5-yl)-CO}-[Phe(3-Me)]SP[Piperazine(2S-CO,4-Me)]A[Pro(4R-Me)]; ester 2-C) | 88.4

Tell me measured Mouse for Cc1cc(C)cc(C[C@H](NC(=O)Nc2ccc(Cl)cc2F)C(=O)N[C@@H]2C(=O)N3CCC[C@H]3C(=O)N3CCCC[C@H]3C(=O)N[C@@H](C)C(=O)N3C[C@H](C)C[C@H]3C(=O)O[C@H]2C)c1 [Compound 4] ({NH(4-Cl-2-F-phenyl)-CO}-[Phe(3,5-Me2)][aThr]P[Pip]A[Pro(4R-Me)]; ester 2-C) please.
99.8

Tell me measured Mouse for Cc1cccc(C[C@H](NC(=O)Nc2ccc(Cl)cc2F)C(=O)N[C@@H]2C(=O)N3CCC[C@H]3C(=O)N3CCSC[C@H]3C(=O)N[C@@H](C)C(=O)N3C[C@H](C)C[C@H]3C(=O)O[C@H]2C)c1 [Compound 38] ({NH(4-Cl-2-F-phenyl)-CO}-[Phe(3-Me)][aThr]P[X1]A[Pro(4R-Me)]; ester 2-C) please.
96.0

Tell me measured Mouse for Cc1cccc(C[C@H](NC(=O)Nc2ccc(Cl)c(F)c2)C(=O)N[C@H]2COC(=O)[C@@H]3C[C@@H](C)CN3C(=O)[C@H](C)NC(=O)[C@@H]3CN(C)CCN3C(=O)[C@@H]3CCCN3C2=O)c1 [Compound 14] ({X2-CO}-[Phe(3-Me)]SP[Piperazine(2S-CO,4-Me)]A[Pro(4R-Me)]; ester 2-C) please.
98.9

----------
Form field: μsol (μM) (one value per entry).
# Test description: Solubility determination
# Format: physicochemical
Numbered stars: 1 amine (or outer) side, 2 acyl side, 3 side chain; on linkers, the order of the positions; unused ones are H or OH. Bridge positions count the residues as written; N and C are the ends. Square brackets hold non-standard residues; d marks the D form. Peptide text beside a SMILES is read from it. * marks the point of attachment. X6 = O=C([C@@H]1CS(=O)(=O)CCN1[*:1])[*:2]; Phe(3-Me) = Cc1cccc(C[C@H](N)C(=O)O)c1; NH(4-Cl-2-F-phenyl) = Fc1cc(Cl)ccc1N*; Pro(4R-Me) = C[C@H]1CN[C@H](C(=O)O)C1; aThr = C[C@H](O)[C@H](N)C(=O)O; Pip = O=C(O)[C@@H]1CCCCN1; CO = O=C([*:1])[*:2]
State just the number; it will be interpreted in µM.

• Cc1cccc(C[C@H](NC(=O)Nc2ccc(Cl)cc2F)C(=O)N[C@@H]2C(=O)N3CCC[C@H]3C(=O)N3CCCC[C@H]3C(=O)N[C@@H](C)C(=O)N3C[C@H](C)C[C@H]3C(=O)O[C@H]2C)c1 [Compound 3] ({NH(4-Cl-2-F-phenyl)-CO}-[Phe(3-Me)][aThr]P[Pip]A[Pro(4R-Me)]; ester 2-C) = 2.2
• Cc1cccc(C[C@H](NC(=O)Nc2ccc(Cl)cc2F)C(=O)N[C@@H]2C(=O)N3CCC[C@H]3C(=O)N3CCS(=O)(=O)C[C@H]3C(=O)N[C@@H](C)C(=O)N3C[C@H](C)C[C@H]3C(=O)O[C@H]2C)c1 [Compound 40] ({NH(4-Cl-2-F-phenyl)-CO}-[Phe(3-Me)][aThr]P[X6]A[Pro(4R-Me)]; ester 2-C) = 0

// next entry
Tell me measured μsol (μM) for Cc1cccc(C[C@H](NC(=O)Nc2ccc3c(c2)OCCO3)C(=O)N[C@H]2COC(=O)[C@@H]3C[C@@H](C)CN3C(=O)[C@H](C)NC(=O)[C@@H]3CCCCN3C(=O)[C@@H]3CCCN3C2=O)c1 please.
7.6
